Source of measurements: the supplement of paper PMC7877785

assay: self-splicing fitness, log relative to wild type (ln ratio); higher = more splicing; Tetrahymena group I intron in knt gene, E. coli kanamycin selection, DiMSum; sequences stand for … in CUCUCU…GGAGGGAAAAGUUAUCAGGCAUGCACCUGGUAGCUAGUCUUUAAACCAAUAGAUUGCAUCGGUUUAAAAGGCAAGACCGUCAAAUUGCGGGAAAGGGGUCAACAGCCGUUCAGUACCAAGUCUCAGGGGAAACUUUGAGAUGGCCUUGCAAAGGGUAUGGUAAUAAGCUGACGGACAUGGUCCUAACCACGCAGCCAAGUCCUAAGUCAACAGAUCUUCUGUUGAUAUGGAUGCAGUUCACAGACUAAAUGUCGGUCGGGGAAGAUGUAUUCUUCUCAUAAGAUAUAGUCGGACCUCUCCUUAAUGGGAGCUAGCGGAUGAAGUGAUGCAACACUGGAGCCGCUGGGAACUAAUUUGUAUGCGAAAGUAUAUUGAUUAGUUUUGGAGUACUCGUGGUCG; conditions: 37 °C;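 further: selection with 25 µg/mL kanamycin versus none on LB agar overnight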
experimental-endpoint: self-splicing fitness (ln)
Reply: number alone, nothing else.

Form: sequence = UAAUAGCAAUAUUACGUCUA ; self-splicing fitness (ln) = 0.263

Form: sequence = UCAUAGCAAUAUUACGUGGU ; self-splicing fitness (ln) = -2.8

Form: sequence = CGUCAGCAAUAUUACGCAUA ; self-splicing fitness (ln) = -2.59

Form: sequence = ACGAAGCAAUAUUACGGAAU ; self-splicing fitness (ln) = -1.34

Form: sequence = CCGUAGCAAUAUUACGGUAA ; self-splicing fitness (ln) = -3.3

Form: sequence = GACUAGCAAUAUUACGGCAG ; self-splicing fitness (ln) = -2.49

Form: sequence = CUUGAGCAAUAUUACGCCAU ; self-splicing fitness (ln) = -3.8

Form: sequence = AUUAAGCAAUAUUACGGAAG ; self-splicing fitness (ln) = -1.29

Form: sequence = AUCAAGCAAUAUUACGGUCA ; self-splicing fitness (ln) = -1.28

Form: sequence = AUCAAGCAAUAUUACGUUAG ; self-splicing fitness (ln) = -3.05

Form: sequence = ACGCAGCAAUAUUACGUCCG ; self-splicing fitness (ln) = -0.408

Form: sequence = AAGGAGCAAUAUUACGUUAG ; self-splicing fitness (ln) = -2.95

Form: sequence = GGACAGCAAUAUUACGAAGG ; self-splicing fitness (ln) = -2.38

Form: sequence = UAUGAGCAAUAUUACGACGU ; self-splicing fitness (ln) = -2.62

Form: sequence = UCGAAGCAAUAUUACGCCUU ; self-splicing fitness (ln) = -3.23

Form: sequence = CUCUAGCAAUAUUACGAAUU ; self-splicing fitness (ln) = -3.19

Form: sequence = UGUCAGCAAUAUUACGAGUA ; self-splicing fitness (ln) = -0.775

Form: sequence = GGCGAGCAAUAUUACGUGUG ; self-splicing fitness (ln) = -0.745

Form: sequence = UAGCAGCAAUAUUACGAUUA ; self-splicing fitness (ln) = -0.0327

Form: sequence = CGUCAGCAAUAUUACGUCUG ; self-splicing fitness (ln) = 0.106

Form: sequence = ACGCAGCAAUAUUACGCAGU ; self-splicing fitness (ln) = -2.78

Form: sequence = AAAUAGCAAUAUUACGUUGG ; self-splicing fitness (ln) = -2.57

Form: sequence = AAGCAGCAAUAUUACGAGAC ; self-splicing fitness (ln) = -0.225

Form: sequence = AAGGAGCAAUAUUACGAGGC ; self-splicing fitness (ln) = -2.41

Form: sequence = CAUGAGCAAUAUUACGCUUA ; self-splicing fitness (ln) = -2.19

Form: sequence = GCGAAGCAAUAUUACGAAGU ; self-splicing fitness (ln) = -2.89

Form: sequence = ACCUAGCAAUAUUACGUAGA ; self-splicing fitness (ln) = -2.49
